system: mouse cortical neuron cultures

# Compound, % Dead cells (vehicle subtracted) (%)
data = [
    ("COP(=S)(OC)SCn1nnc2ccccc2c1=O", -0.9211),
    ("Cc1ccccc1CO[C@@H]1C[C@@]2(C(C)C)CC[C@]1(C)O2 (racemic)", -0.5547),
    ("O=C(O)C1(C(=O)Nc2ccc(Cl)cc2Cl)CC1 [Cyclanilide]", 0.6928),
    ("CC(C)Nc1nc(Cl)nc(NC(C)C)n1", 0.5652),
    ("CNC(=O)O/N=C/C(C)(C)SC", -0.4371),
    ("COc1cccc(C(=O)NN(C(=O)c2cc(C)cc(C)c2)C(C)(C)C)c1C [Methoxyfenozide]", 0.2717),
    ("CNC(=S)[S-].O.O.[Na+] [Metam-sodium hydrate]", -1.491),
    ("CCOP(=S)(Oc1cnc(C(C)(C)C)nc1)OC(C)C (centres unmarked)", 0.1923),
    ("COP(=O)(OC)O/C(C)=C/C(=O)N(C)C", -0.1238),
    ("CCCCN(CC)c1c([N+](=O)[O-])cc(C(F)(F)F)cc1[N+](=O)[O-] [Benfluralin [Benefin]]", -1.412),
    ("CCOC(=O)C(Cl)Cc1cc(-n2nc(C)n(C(F)F)c2=O)c(F)cc1Cl (centres unmarked)", 9.785),
    ("CCN(CC)c1nc(C)cc(OP(=S)(OC)OC)n1", -0.1826),
    ("CCCCOC(=O)c1ccccc1C(=O)O", 5.2539),
    ("CCN(Cc1c(F)cccc1Cl)c1c([N+](=O)[O-])cc(C(F)(F)F)cc1[N+](=O)[O-]", 1.368),
    ("CCC(C)OC(=O)N1CCCCC1CCO (centres unmarked)", 2.044),
    ("COc1cc(Cl)c(OC)cc1Cl", -0.9422),
    ("CN(C)C(=S)SSC(=S)N(C)C", 0.7821),
    ("COP(=S)(OC)Oc1nc(Cl)c(Cl)cc1Cl", -0.3201),
    ("CCOP(=S)(OCC)Oc1nc(Cl)n(C(C)C)n1", -3.842),
    ("CCCOc1nn(C(=O)[N-]S(=O)(=O)c2ccccc2C(=O)OC)c(=O)n1C.[Na+] [Propoxycarbazone-sodium]", -1.764),
    ("CCOP(=S)(OCC)Oc1ccc2c(C)c(Cl)c(=O)oc2c1", 0.01959),
    ("CCC/C(=N\\OCC)C1=C(O)CC(CC(C)SCC)CC1=O (centres unmarked)", -0.798),
    ("COP(=S)(OC)Oc1ccc(SC)c(C)c1", -0.5799),
    ("COCCO", 2.2057),
    ("CNC(=O)CSP(=S)(OC)OC [Dimethoate]", -3.6),
    ("CC(C)(c1ccc(O)cc1)c1ccc(O)cc1.CC(C)(c1ccc(O)cc1)c1ccc(O)cc1", 0.9627),
    ("CCCCC(C#N)(Cn1cncn1)c1ccc(Cl)cc1 (centres unmarked)", -1.6229),
    ("CN1COCN(Cc2cnc(Cl)s2)/C1=N\\[N+](=O)[O-]", 1.407),
    ("COP(=S)(OC)Oc1ccc([N+](=O)[O-])c(C)c1", -1.338),
    ("CC1=NNC(=O)N(/N=C/c2cccnc2)C1", -2.3223),
    ("CCCSP(=O)(OCC)Oc1ccc(Br)cc1Cl (centres unmarked)", -2.76),
    ("C[C@@]1(c2ccc(Oc3ccccc3)cc2)OC(=O)N(Nc2ccccc2)C1=O (racemic)", 1.213),
    ("CCc1cccc(C)c1N(C(=O)CCl)C(C)COC (centres unmarked)", -3.586),
    ("CCOc1cc(Oc2ccc(C(F)(F)F)cc2Cl)ccc1[N+](=O)[O-]", -3.765),
    ("CCCCSP(=O)(SCCCC)SCCCC", -0.3794),
]

----------
system: mouse cortical neuron cultures; details: mouse, 24 h, 10 µM
We begin with a simple list: items and their reported % Dead cells (vehicle subtracted).

# Compound, % Dead cells (vehicle subtracted) / %
data = [
    ("CN(C)c1nc(=O)n(C2CCCCC2)c(=O)n1C", -2.629),
    ("CC1(C)C(C=C(Cl)Cl)C1C(=O)OC(C#N)c1cccc(Oc2ccccc2)c1 (centres unmarked)", -3.377),
    ("COCC(C)N(C(=O)CCl)c1c(C)csc1C (centres unmarked)", -0.353),
    ("Cc1ccc(-c2c(Cl)nc(C#N)n2S(=O)(=O)N(C)C)cc1", -1.678),
    ("CS(=O)(=O)c1cc(C(F)(F)F)ccc1C(=O)c1cnoc1C1CC1", 2.416),
]

----------
The entries below come with measured % Dead cells (vehicle subtracted) values attached.
system: mouse cortical neuron cultures

# Compound, Unit Of Measurement, % Dead cells (vehicle subtracted)
data = [
    ("CN/C(=N\\[N+](=O)[O-])NCc1cnc(Cl)s1", "%", -2.188),
    ("CCC(C)n1c(=O)[nH]c(C)c(Br)c1=O (stereo not shown)", "%", 5.5524),
    ("CCCN(CCC)c1c([N+](=O)[O-])cc(C(F)(F)F)c(N)c1[N+](=O)[O-]", "%", -0.1982),
    ("S=C1NCCN1", "%", -0.5482),
    ("Oc1ccc(C(c2ccc(O)cc2)C(Cl)(Cl)Cl)cc1", "%", 1.986),
    ("COP(=O)(NC(C)=O)SC (stereo not shown) [Acephate]", "%", -1.8111),
    ("CC(C)N(C(=O)SCC(Cl)=C(Cl)Cl)C(C)C [Tri-allate]", "%", 1.844),
    ("O=C(Nc1ccccc1)Nc1ccnc(Cl)c1", "%", 0.6006),
    ("O=C(O)c1c(Cl)ccc2cc(Cl)cnc12", "%", -1.41),
    ("Cc1ccc(C(=O)c2ccccc2)cc1", "%", 2.416),
    ("CN(C)NC(=O)CCC(=O)O [Daminozide]", "%", -0.7321),
    ("COC(=O)C(C)Oc1ccc(Oc2ccc(Cl)cc2Cl)cc1 (stereo not shown)", "%", -2.902),
    ("CCNC(=O)NC(=O)/C(C#N)=N/OC", "%", 3.586),
    ("CNC(=O)N(C)c1nnc(C(C)(C)C)s1", "%", -0.9604),
    ("CCOP(=S)(OCC)OC(Cl)C(Cl)(Cl)Cl (stereo not shown)", "%", 0.5415),
    ("Cc1cc(Cl)ccc1OCC(=O)O", "%", 9.261),
    ("O=C1C2CC=CCC2C(=O)N1SC(Cl)(Cl)Cl (stereo not shown)", "%", 2.374),
    ("CCCCC(CC)COC(=O)c1ccccc1C(=O)OCC(CC)CCCC (stereo not shown) [Diethylhexyl phthalate (DEHP)]", "%", -0.2848),
    ("COP(=O)(OC)C(O)C(Cl)(Cl)Cl (stereo not shown)", "%", 2.414),
    ("COc1nn(CSP(=S)(OC)OC)c(=O)s1", "%", 0.1761),
    ("CCCN(CCOc1c(Cl)cc(Cl)cc1Cl)C(=O)n1ccnc1", "%", -2.048),
    ("CCNc1nc(Cl)nc(NC(C)(C)C#N)n1", "%", 0.5036),
]

----------
test system: mouse cortical neuron cultures

# Molecule, % Dead cells (vehicle subtracted)
measured = [
    ("CC1(C)C(C=C(Cl)Cl)C1C(=O)OCc1cccc(Oc2ccccc2)c1 (stereo not drawn)", "-0.7739%"),
    ("CCOP(=S)(OCC)Oc1ccc([N+](=O)[O-])cc1", "-1.193%"),
    ("CNC(=O)O/N=C(\\SC)C(=O)N(C)C", "-2.835%"),
]

----------
Dear all, this message contains % Dead cells (vehicle subtracted) results, target or system mouse cortical neuron cultures.
Where a name gives a salt, the structure may show the parent alone.
Value Kind: % Dead cells (vehicle subtracted) (%)

# Compound, Value Kind, Unit Of Measurement, Observed
measured = [
    ("CCCCOC(=O)[C@@H](C)Oc1ccc(Oc2ccc(C#N)cc2F)cc1", "% Dead cells (vehicle subtracted)", "%", 0.4476),
    ("COP(=O)(OC)OC=C(Cl)Cl", "% Dead cells (vehicle subtracted)", "%", 0.4159),
    ("O=S(=O)(O)C(F)(F)C(F)(F)C(F)(F)C(F)(F)C(F)(F)C(F)(F)C(F)(F)C(F)(F)F", "% Dead cells (vehicle subtracted)", "%", 6.21),
    ("C=CCC1=C(C)[C@@H](OC(=O)[C@@H]2[C@@H](C=C(C)C)C2(C)C)CC1=O", "% Dead cells (vehicle subtracted)", "%", -1.697),
    ("CC1(C)C(C(=O)OC(C#N)c2cccc(Oc3ccccc3)c2)C1(C)C (stereo not shown)", "% Dead cells (vehicle subtracted)", "%", -1.601),
    ("CCOC(=O)COc1cc(-c2nn(C)c(OC(F)F)c2Cl)c(F)cc1Cl", "% Dead cells (vehicle subtracted)", "%", -2.144),
    ("COC(=O)c1ccc(CNS(C)(=O)=O)cc1S(=O)(=O)NC(=O)Nc1nc(OC)cc(OC)n1", "% Dead cells (vehicle subtracted)", "%", -0.4756),
    ("CNC(=O)/C=C(\\C)OP(=O)(OC)OC", "% Dead cells (vehicle subtracted)", "%", -1.862),
    ("C#CCC1=C(C)C(OC(=O)C2C(C=C(C)C)C2(C)C)CC1=O (stereo not shown)", "% Dead cells (vehicle subtracted)", "%", -0.1241),
    ("CC(C)(C)C(=O)C(Oc1ccc(Cl)cc1)n1cncn1 (stereo not shown)", "% Dead cells (vehicle subtracted)", "%", -0.7492),
    ("CS(=O)(=O)c1ccc(C(=O)C2C(=O)CCCC2=O)c([N+](=O)[O-])c1", "% Dead cells (vehicle subtracted)", "%", 0.1871),
    ("COC(=O)c1ccccc1C(=O)O [Methyl hydrogen phthalate]", "% Dead cells (vehicle subtracted)", "%", 1.938),
    ("COC(=O)c1ccccc1C(=O)OC [Dimethyl phthalate]", "% Dead cells (vehicle subtracted)", "%", 1.872),
    ("CCOP(=O)(NC(C)C)Oc1ccc(SC)c(C)c1 (stereo not shown)", "% Dead cells (vehicle subtracted)", "%", 5.708),
    ("COC(=O)c1ccc(I)cc1S(=O)(=O)[N-]C(=O)Nc1nc(C)nc(OC)n1.[Na+] [Iodosulfuron-methyl-sodium]", "% Dead cells (vehicle subtracted)", "%", -4.352),
    ("CCCCCCC(C)OC(=O)COc1nc(F)c(Cl)c(N)c1Cl (stereo not shown)", "% Dead cells (vehicle subtracted)", "%", -1.2099),
    ("CCC(=O)Nc1ccc(Cl)c(Cl)c1", "% Dead cells (vehicle subtracted)", "%", -3.018),
    ("COCc1cnc(C2=NC(C)(C(C)C)C(=O)N2)c(C(=O)O)c1 (stereo not shown)", "% Dead cells (vehicle subtracted)", "%", -0.1553),
    ("C#CC(C)(C)NC(=O)c1cc(Cl)cc(Cl)c1 [Propyzamide]", "% Dead cells (vehicle subtracted)", "%", 1.57),
    ("CCCOC(=O)NCCCN(C)C [Propamocarb hydrochloride]", "% Dead cells (vehicle subtracted)", "%", -1.887),
    ("CC(C)Oc1cccc(NC(=O)c2ccccc2C(F)(F)F)c1", "% Dead cells (vehicle subtracted)", "%", 9.589),
    ("CN(C)C(=O)Nc1ccc(Cl)c(Cl)c1", "% Dead cells (vehicle subtracted)", "%", -0.632),
    ("CCCN(CCC)c1c([N+](=O)[O-])cc(C(F)(F)F)cc1[N+](=O)[O-]", "% Dead cells (vehicle subtracted)", "%", 0.2689),
    ("Cc1nc(N(C)C)nc(OC(=O)N(C)C)c1C", "% Dead cells (vehicle subtracted)", "%", -1.736),
    ("Cc1cc(C)nc(NC(=O)NS(=O)(=O)c2ccccc2C(=O)OC2COC2)n1", "% Dead cells (vehicle subtracted)", "%", -0.4775),
    ("O=C(O)c1cc(Oc2ccc(C(F)(F)F)cc2Cl)ccc1[N+](=O)[O-]", "% Dead cells (vehicle subtracted)", "%", 3.873),
    ("CSc1nnc(C(C)(C)C)c(=O)n1N", "% Dead cells (vehicle subtracted)", "%", -0.1172),
    ("Clc1ccccc1-c1nnc(-c2ccccc2Cl)nn1", "% Dead cells (vehicle subtracted)", "%", 0.4977),
    ("CCCC1COC(Cn2cncn2)(c2ccc(Cl)cc2Cl)O1 (stereo not shown)", "% Dead cells (vehicle subtracted)", "%", 0.7517),
    ("C=CCOC(Cn1ccnc1)c1ccc(Cl)cc1Cl (stereo not shown)", "% Dead cells (vehicle subtracted)", "%", 0.2633),
    ("CCOP(=S)(OCC)SCn1c(=O)oc2cc(Cl)ccc21", "% Dead cells (vehicle subtracted)", "%", 3.318),
    ("C/C(=N\\C#N)N(C)Cc1ccc(Cl)nc1", "% Dead cells (vehicle subtracted)", "%", 2.983),
    ("Clc1nc(Cl)nc(Nc2ccccc2Cl)n1", "% Dead cells (vehicle subtracted)", "%", -1.572),
    ("CC(Oc1ccc(Cl)cc1Cl)C(=O)O (stereo not shown)", "% Dead cells (vehicle subtracted)", "%", -0.3394),
]
